Test system: NCI-H322M
Assay: NCI 60 antitumor screening (single dose)
Format: cell-based
Settings: Homo sapiens; NCI-H322M (non-small cell lung cancer), single dose 10 μM; read-out: Growth inhibition percentage (GI %)
The molecules listed here are annotated with their inhibition at 10 µM.
The answer should read as a number with its unit following.

Reference set (6 entries):
Molecule: O=[N+]([O-])c1cccc(/C=N/Nc2nc(N/N=C/c3cccc([N+](=O)[O-])c3)nc(N3CCCCC3)n2)c1 [compound 7f]
inhibition at 10 µM: 13.8%
--
Molecule: C(=N\Nc1nc(N/N=C/c2ccc3c(c2)OCO3)nc(N2CCOCC2)n1)/c1ccc2c(c1)OCO2 [compound 6k]
inhibition at 10 µM: 11.8%
--
Molecule: Clc1cccc(/C=N/Nc2nc(N/N=C/c3cccc(Cl)c3Cl)nc(N3CCCCC3)n2)c1Cl [compound 7h]
inhibition at 10 µM: 10%
--
Molecule: Oc1ccc(/C=N/Nc2nc(N/N=C/c3ccc(O)c(O)c3)nc(N3CCOCC3)n2)cc1O [compound 6j]
inhibition at 10 µM: 9.4%
--
Molecule: Clc1cccc(/C=N/Nc2nc(N/N=C/c3cccc(Cl)c3)nc(N3CCOCC3)n2)c1 [compound 6d]
inhibition at 10 µM: 46.2%
--
Molecule: O=[N+]([O-])c1cccc(/C=N/Nc2nc(N/N=C/c3cccc([N+](=O)[O-])c3)nc(N3CCOCC3)n2)c1 [compound 6f]
inhibition at 10 µM: 5.64%

Exam item: # return recorded inhibition at 10 µM for input CN(C)c1ccc(/C=N/Nc2nc(N/N=C/c3ccc(N(C)C)cc3)nc(N3CCOCC3)n2)cc1 [compound 6g]
Marked response: -0.33%

Exam item: # return recorded inhibition at 10 µM for input O=[N+]([O-])c1cc(/C=N/Nc2nc(N/N=C/c3ccc(Cl)c([N+](=O)[O-])c3)nc(N3CCOCC3)n2)ccc1Cl [compound 6i]
Marked response: 2.28%

Exam item: # return recorded inhibition at 10 µM for input C/C(=N\Nc1nc(N/N=C(\C)c2ccc([N+](=O)[O-])cc2)nc(N2CCOCC2)n1)c1ccc([N+](=O)[O-])cc1 [compound 8a]
Marked response: 13.3%

---

Test system: 786-0
Assay: NCI 60 antitumor screening (single dose / five doses)
Type: cell-based
Details: Homo sapiens, 786-0, 786-0 (renal cancer), single dose 10 μM; read-out: Growth inhibition percentage (GI %)
The molecules listed here are annotated with their inhibition at 10 µM.
Write the value in % as a bare number.

Reference set (5 entries):
Smiles record: CN(C)c1ccc(/C=N/Nc2nc(N/N=C/c3ccc(N(C)C)cc3)nc(N3CCCCC3)n2)cc1
Unit annotation: %
inhibition at 10 µM: 11.8

Smiles record: O=C(NNc1nc(NNC(=O)c2ccccc2)nc(N2CCOCC2)n1)c1ccccc1
Unit annotation: %
inhibition at 10 µM: -3.15

Smiles record: Oc1ccc(/C=N/Nc2nc(N/N=C/c3ccc(O)c(O)c3)nc(N3CCCCC3)n2)cc1O
Unit annotation: %
inhibition at 10 µM: -1.22

Smiles record: Brc1ccccc1/C=N/Nc1nc(N/N=C/c2ccccc2Br)nc(N2CCOCC2)n1
Unit annotation: %
inhibition at 10 µM: 38.7

Smiles record: Clc1cccc(/C=N/Nc2nc(N/N=C/c3cccc(Cl)c3)nc(N3CCOCC3)n2)c1
Unit annotation: %
inhibition at 10 µM: 69.4

Exam item: Report inhibition at 10 µM from 786-0 testing of O=C1Nc2ccc(Cl)cc2/C1=N\Nc1nc(N/N=C2/C(=O)Nc3ccc(Cl)cc32)nc(N2CCOCC2)n1
Marked response: 26.3

Exam item: Report inhibition at 10 µM from 786-0 testing of Brc1cccc(/C=N/Nc2nc(N/N=C/c3cccc(Br)c3)nc(N3CCOCC3)n2)c1
Marked response: 75.5

Exam item: Report inhibition at 10 µM from 786-0 testing of Oc1ccccc1/C=N/Nc1nc(N/N=C/c2ccccc2O)nc(N2CCOCC2)n1
Marked response: 69.7
